target: Mannose-6-phosphate isomerase (Homo sapiens) (UniProt P34949); test: MPI inhibition at elevated mannose 6-phosphate – biochemical, fluorescence intensity, high mannose 6-phosphate, primary screen (AID 1220); settings: recombinant PMI enzyme, coupled fluorescence intensity; at 20 µM; active compounds read high
Sequence (P34949 whole entry, looked up): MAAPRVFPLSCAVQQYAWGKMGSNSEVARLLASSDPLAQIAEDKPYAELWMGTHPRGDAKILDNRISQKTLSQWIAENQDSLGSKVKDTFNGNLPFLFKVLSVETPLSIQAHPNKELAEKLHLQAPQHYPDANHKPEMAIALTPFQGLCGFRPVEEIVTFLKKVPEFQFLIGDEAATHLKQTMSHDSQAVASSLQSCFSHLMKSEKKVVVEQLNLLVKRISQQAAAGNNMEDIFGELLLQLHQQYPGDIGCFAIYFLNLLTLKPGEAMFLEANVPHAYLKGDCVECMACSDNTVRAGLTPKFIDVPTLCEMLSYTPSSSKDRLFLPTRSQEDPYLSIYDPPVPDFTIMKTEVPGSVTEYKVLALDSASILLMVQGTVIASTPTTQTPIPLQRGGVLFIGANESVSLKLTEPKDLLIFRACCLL
Hit rate of the full screen: of about 190,000 compounds, about 1,300 (0.68%) were called active. Shown is part of a subset that was picked to be rich in actives.
Classification field: enter Satisfied for inhibition values not below 20%, Not satisfied for values below it.

Chem smiles	Target or test system	Qualitative label
COc1ccc(CCn2c(N)c(C(=O)NCc3ccco3)c3nc4ccccc4nc32)cc1OC	Mannose-6-phosphate isomerase (Homo sapiens) (UniProt P34949)	Satisfied
COCCn1c(N)c(S(=O)(=O)c2cccs2)c2nc3ccccc3nc21	Mannose-6-phosphate isomerase (Homo sapiens) (UniProt P34949)	Not satisfied
COCCn1c(N)c(C(=O)Nc2sc3c(c2C(=O)OC)CCCC3)c2nc3ccccc3nc21	Mannose-6-phosphate isomerase (Homo sapiens) (UniProt P34949)	Not satisfied
CCCCN=C1C([N+](=O)[O-])=CC=C2C1=NC1(CCCCC1)N2O	Mannose-6-phosphate isomerase (Homo sapiens) (UniProt P34949)	Satisfied

----------
target: Mannose-6-phosphate isomerase (Homo sapiens); test: MPI inhibition at elevated mannose 6-phosphate – biochemical, fluorescence intensity, high mannose 6-phosphate, primary screen (AID 1220); conditions: recombinant PMI enzyme, coupled fluorescence intensity; at 20 µM
About 1,300 (0.68%) of roughly 190,000 compounds were called active. Rule as the data show it: active = inhibition above about 50%; inactive = the rest. The list comes from a sample in which actives are over-represented; it also holds close analogues and randomly drawn compounds.
Outcome codes: active, inactive

Compound	Qualitative label
Cc1nccn1Cc1cccc2ccccc12	inactive
C=CCN(C(=O)CCC(=O)Nc1cc(C)on1)C(C(=O)NC1CCCC1)c1cccnc1 (stereo not given)	inactive
CC(C)CC(=O)Nc1ccc2nn(-c3ccccc3)nc2c1	inactive
C=CCOc1c(Cl)cc(CNc2ccc(N(C)C)cc2)cc1OC	active
CCOC(=O)C1=C(CC)OC(N)=C(C#N)C1c1cccs1 (stereo not given)	inactive
O=C(Nc1ccccc1)c1cc2c(=O)c3ccccc3oc2nc1C(F)(F)F	inactive
CCOC(=O)C1=C(CSc2nc(C)cc(C)c2C#N)OC(N)=C(C#N)C1c1cccs1 (stereo not given)	active
Cc1ccc(-n2nc3ccc(N)cc3n2)cc1	inactive
CCOC(=O)C1=C(CSc2nc(CC)c(C)cc2C#N)OC(N)=C(C#N)C1c1ccc(OC)cc1 (stereo not given)	active
Cc1ccc(-c2cc(-c3ccccc3)nc(Cl)n2)cc1	inactive
CCOC(=O)COn1c(=O)c(=O)n(O)c2ccccc21	inactive
COCc1cc([C@@H]2C[C@H]3CN(c4ccccc4)C(=O)[C@]34CCCN24)ccc1OC	inactive
CC(=O)Nc1ccc(S(=O)(=O)Nc2c(C)n(C)n(-c3ccccc3)c2=O)cc1	inactive
C/C(=N/OCc1ccc(Br)cc1)c1ccccn1	inactive
CCOc1cc(NC(=S)NCCOC)c(OCC)cc1NC(=O)c1ccco1	inactive
Cc1nc2cc(N)ccc2n1-c1ccccc1	inactive
CCN1C/C(=C/c2ccc(OC)c(O)c2)C(=O)/C(=C/c2ccc(OC)c(O)c2)C1	inactive
CCOC(=O)N1CCN(C(=O)CS(=O)(=O)c2cn(Cc3ccccc3Cl)c3ccccc23)CC1	inactive
O=[N+]([O-])c1ccccc1S(=O)(=O)N1CCN(Cc2cc3c(cc2O)OCO3)CC1	active
Cc1cc(=O)n2nc(N3CCC(C(=O)NC4CCCc5ccccc54)CC3)sc2n1 (stereo not given)	inactive
OC1(c2cccs2)CN(c2ccccc2)C2=[N+]1CCCC2 (stereo not given)	inactive
COCc1c(C#N)c(NCCc2ccc(F)cc2)nc(C)c1[N+](=O)[O-]	inactive
Cc1ccc(-c2nc(N)sc2C)cc1	inactive
O=C(NC1CC1)c1cc(Cl)ccc1[N+](=O)[O-]	inactive
Cc1ccc(C(=O)NCc2ccccc2)cc1Br	inactive
CCOC(=O)C1=C(CSc2nc(CC)c(C)cc2C#N)OC(N)=C(C#N)C1c1ccccc1 (stereo not given)	inactive
CCOC(=O)c1sc2ncnc(N3CCN(CC)CC3)c2c1C	inactive
Cc1ccc(-n2nc3ccc(NC(=O)C(C)C)cc3n2)cc1	inactive
CCOc1c(Cl)cc(CNc2ccc(S(N)(=O)=O)cc2)cc1OC	inactive
CCN1C2=C(C(=O)CCC2)C(c2ccc(O)cc2)C2=C1CCCC2=O	inactive
CCc1ccccc1NC(=O)c1cccc(Oc2ccc([N+](=O)[O-])cc2Cl)c1	inactive
CCCCOC(=O)C1[C@H]2C(=O)N(CCc3ccccc3)C[C@]23C=C[C@H]1O3 (stereo not given in full)	inactive
Cc1ccc(-c2nc(N)sc2-c2ccc(C)cc2)cc1	inactive
CCC1Sc2ccccc2N(CC(=O)NCc2ccc3c(c2)OCO3)C1=O (stereo not given)	inactive
COc1ccc(C=C2C(=O)c3ccccc3C2=O)cc1O	active
CCOCCCNC(=S)Nc1cc(OCC)c(NC(=O)c2ccco2)cc1OCC	inactive
CC(=O)NC(=S)Nc1ccc([N+](=O)[O-])cc1C	inactive
CCNC(=S)Nc1cc(OCC)c(NC(=O)c2ccco2)cc1OCC	active
CCOc1cc(-c2noc(CCCC(N)=O)n2)cc(Br)c1OC	inactive
COc1ccc(OC)c(-n2c(-c3cccc(S(=O)(=O)N(C)C)c3)n[nH]c2=S)c1	inactive
O=C(O)c1ccc(N2Cc3ccccc3C2)cc1O	inactive
Cc1c(CNC(=O)c2cnn3c2NC(c2ccc(Br)cc2)CC3C(F)(F)F)cnn1C (stereo not given)	inactive
COc1ccc(Br)cc1CN1CCN(C(=O)c2ccc(OC)c(OC)c2)CC1	inactive
CCOc1cc(CNc2ccc(S(N)(=O)=O)cc2)cc(Cl)c1OC	inactive
CCOc1cc([C@@H]2C[C@H]3CN(c4ccccc4)C(=O)[C@]34CCCN24)ccc1OC	active

----------
target: Mannose-6-phosphate isomerase (Homo sapiens) (UniProt P34949); experiment: MPI inhibition at elevated mannose 6-phosphate – biochemical, fluorescence intensity, high mannose 6-phosphate, primary screen (AID 1220); details: recombinant PMI enzyme, coupled fluorescence intensity; at 20 µM
The campaign covered roughly 190,000 compounds. About 1,300 (0.68%) were called active. Rule as the data show it: active = inhibition above about 50%; inactive = the rest. This is one part of a sample in which actives are shown more often than they occur.
Outcome codes: active, inactive

Chem smiles	Target or test system	Qualitative label
Cc1cc(/C=C(\C#N)C(=O)NC2CCCCCC2)c(C)[nH]1	Mannose-6-phosphate isomerase (Homo sapiens) (UniProt P34949)	inactive
N#C/C(=C/c1ccc(N2CCOCC2)o1)c1ccc(Br)cc1	Mannose-6-phosphate isomerase (Homo sapiens) (UniProt P34949)	active
N#C/C(=C/c1ccc(N2CCOCC2)o1)c1ccc(Cl)cc1	Mannose-6-phosphate isomerase (Homo sapiens) (UniProt P34949)	inactive
N#C/C(=C\c1cc(Cl)ccc1O)C(=O)NC1CCCCC1	Mannose-6-phosphate isomerase (Homo sapiens) (UniProt P34949)	inactive
N#C/C(=C/c1ccc(N2CCOCC2)o1)c1nc2ccccc2[nH]1	Mannose-6-phosphate isomerase (Homo sapiens) (UniProt P34949)	inactive
N#C/C(=C\c1cc(Cl)cc(Cl)c1O)C(=O)NC1CCCCC1	Mannose-6-phosphate isomerase (Homo sapiens) (UniProt P34949)	active

----------
Parameter: inhibition. Scope: all listed entries.
molecular target: Mannose-6-phosphate isomerase (Homo sapiens) (UniProt P34949); assay: MPI inhibition at elevated mannose 6-phosphate – biochemical, fluorescence intensity, high mannose 6-phosphate, primary screen (AID 1220); details: recombinant PMI enzyme, coupled fluorescence intensity; at 20 µM; active compounds read high
Screen size: about 190,000 compounds; about 1,300 (0.68%) were called active. Many of the other results were omitted from the sample, so actives are more common in it than they were.

Molecule	Target or test system	inhibition, %
CC(C)CSc1n[nH]c(=S)s1	Mannose-6-phosphate isomerase (Homo sapiens) (UniProt P34949)	-41
CCc1ccccc1NC1Nc2cc(C)nn2S1 (stereo not drawn)	Mannose-6-phosphate isomerase (Homo sapiens) (UniProt P34949)	27.6
CNC(=O)NC(=O)C(C)OC(=O)CCCSc1nc2ccccc2s1 (stereo not drawn)	Mannose-6-phosphate isomerase (Homo sapiens) (UniProt P34949)	4.7
OCCN1CCN(Cc2cc(Cl)c3cccnc3c2O)CC1	Mannose-6-phosphate isomerase (Homo sapiens) (UniProt P34949)	48.3
Cc1cc2n(n1)SC(Nc1cccc3ccccc13)N2 (stereo not drawn)	Mannose-6-phosphate isomerase (Homo sapiens) (UniProt P34949)	54.1
O=C(NCc1cccnc1)NC1CCCN1S(=O)(=O)c1ccc(Cl)cc1 (stereo not drawn)	Mannose-6-phosphate isomerase (Homo sapiens) (UniProt P34949)	-3.5
O=c1oc2ccccc2cc1-c1cn2ccccc2n1	Mannose-6-phosphate isomerase (Homo sapiens) (UniProt P34949)	-4.7
S=C(NCCN1CCOCC1)N/N=C/c1ccccc1	Mannose-6-phosphate isomerase (Homo sapiens) (UniProt P34949)	3.7
COc1cc(C(=O)NCCC(=O)N2CCN(C)CC2)cc(OC)c1OC	Mannose-6-phosphate isomerase (Homo sapiens) (UniProt P34949)	-1
Oc1ccc(/C=N/NC(=S)NCCN2CCOCC2)c(O)c1	Mannose-6-phosphate isomerase (Homo sapiens) (UniProt P34949)	-21.6
Cc1ccc2[nH]c3c(c2c1)CCNC3=O	Mannose-6-phosphate isomerase (Homo sapiens) (UniProt P34949)	-5.2
CCOC(=O)N1CCN(Cc2ccccn2)CC1	Mannose-6-phosphate isomerase (Homo sapiens) (UniProt P34949)	-7.5
Cc1ccc(C(=O)N/N=C/c2ccc(N3CCOCC3)cc2)c(C)c1	Mannose-6-phosphate isomerase (Homo sapiens) (UniProt P34949)	-8
